// data source = patent US20220356267A1

Molecular target: T1, recombinant human CD73 protein (ecto-5'-nucleotidase), expressed by the applicant, C-terminal 6x His tag (human, UniProt P21589 27-547)
T1 sequence: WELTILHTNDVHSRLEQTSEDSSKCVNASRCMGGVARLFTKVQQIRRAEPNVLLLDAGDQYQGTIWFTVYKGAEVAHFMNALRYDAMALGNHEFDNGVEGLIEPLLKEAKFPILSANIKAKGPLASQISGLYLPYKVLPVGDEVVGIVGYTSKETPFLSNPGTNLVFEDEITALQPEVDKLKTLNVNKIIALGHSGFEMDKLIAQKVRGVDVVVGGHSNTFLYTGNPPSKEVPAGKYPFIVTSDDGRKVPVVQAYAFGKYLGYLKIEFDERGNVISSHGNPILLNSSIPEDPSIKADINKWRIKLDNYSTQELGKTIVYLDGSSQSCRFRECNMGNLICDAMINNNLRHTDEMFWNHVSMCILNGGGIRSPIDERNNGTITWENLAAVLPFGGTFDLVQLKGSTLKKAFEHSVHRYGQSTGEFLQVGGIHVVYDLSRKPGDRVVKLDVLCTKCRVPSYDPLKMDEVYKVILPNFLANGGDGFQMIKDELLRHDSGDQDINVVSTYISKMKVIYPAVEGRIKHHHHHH
Assay: SPR, Biacore T200, antibody captured by anti-mouse Fc IgG, human CD73 injected, 25 °C, 1:1 fit
For each entry below, report its Kd value.
Answers are plain numbers, in nM.

Reference set, count: 3
| binder | attribute measured | measured value |
| --- | --- | --- |
| anti-CD73 monoclonal antibody 81-2-2 (antibody, V domains shown, Mouse hybridoma antibody of the IgG type, purified from ascitic fluid) VH: QVQLQQPGAELVKPGASVKLSCKASGYTFTSYWMHWVKQRPGQGLEWIGEINPSNGRTNYNEKFKSKATLTVDKSSSTAYMQLSSLTSEDSAVYYCARRGTSGNFFDYWGQGTTLTVSS VL: DIKMTQSPSSMYASLGERVTITCKASQDINTYLSWFQQKPGKSPKTLIYRANRLVDGVPSRFSGSGSGQDYSLTISSLEYEDMGIYYCLQFDEFPYTFGGGTKLEIK | Kd | 0.49 |
| anti-CD73 monoclonal antibody E1-B6 (antibody, V domains shown, Mouse hybridoma antibody of the IgG type, purified from ascitic fluid) VH: VKLQESGAELARPGASVKLSCKASGYTFTDYYINWVKQRTGQGLEWIGETYPGNGNTYYHEKFKGKATLTADRSSSTAYMQLSSLTSEDSAVYFCARGTYYGSSEYFDYWGQGTTVTVSS VL: DIVMTQSPKFMSTSVGDRVSITCKASQNVGTAVAWYQQRPGQSPKLLIYSASNRNTGVPDRFTGSGSGTDFTLTISNMQSEDLADYFCQQYSSYIFTFGSGTKLEIN | Kd | 0.813 |
| anti-CD73 monoclonal antibody F2-2 (antibody, V domains shown, Mouse hybridoma antibody of the IgG type, purified from ascitic fluid) VH: VQLQESGPGLVKPSQSLSLTCTVTGHSITSDYVWNWIRQFPGNKLEWMGYISYSGIIKYNPSLKSRISITRDTSKNQFFLQLNSVTTEDTATYYCAGDEYFWFAYWGQGTTVTVSS VL: DIQMTQSPSSMYASLGERVTITCKASQDIKSYLSWYQQKPWKSPKTLIYYATNLADGVPSRFSGSGSGQDYSLTISSLESDDTATYYCLQHGESPYTFGGGTKLEIK | Kd | 0.0318 |

We next turn to a different binder, shown below.
-- ask # get_value(readout='Kd', item= anti-CD73 monoclonal antibody 06-6 (antibody, V domains shown, Mouse hybridoma antibody of the IgG type, purified from ascitic fluid) VH: QVQLQQSGPELVKPGASVRISCKASGYTFADYFMHWVRLRPGQGLEWIGWIYPGYVNIKYNEKFKGKATLTADKSSSTAYMQLSSLTSEDSAVYFCARGEDYDSAMDYWGQGTSVTVSS VL: GVVMTQTPLSLPVSLGDQASISCRSSQSLVHSNGNTYLHWYLQKPGQSPKLLIYKVSNRFSGVPDRFSGSGSGTDFTLKISRVEAEDLGVYFCSQSTHVPPWTFGGGTKLEIK )
-- reply 0.753
